Target: CK1γ2 (Homo sapiens, UniProt P78368)
Sequence (P78368 whole entry): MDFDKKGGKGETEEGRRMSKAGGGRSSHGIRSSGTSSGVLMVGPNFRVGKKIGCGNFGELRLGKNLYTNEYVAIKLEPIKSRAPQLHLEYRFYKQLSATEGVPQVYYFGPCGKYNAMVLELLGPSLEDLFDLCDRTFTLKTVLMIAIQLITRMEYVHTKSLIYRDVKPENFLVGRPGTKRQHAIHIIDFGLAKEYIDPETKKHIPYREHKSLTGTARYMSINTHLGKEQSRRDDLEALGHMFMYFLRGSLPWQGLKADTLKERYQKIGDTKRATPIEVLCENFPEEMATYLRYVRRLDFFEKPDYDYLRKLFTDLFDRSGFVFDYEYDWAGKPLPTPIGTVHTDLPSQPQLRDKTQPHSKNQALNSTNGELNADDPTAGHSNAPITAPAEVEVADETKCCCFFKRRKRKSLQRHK
Test: CK1γ2 NanoBRET assay with tracer 23, intact cells
Assay type: cell-based
Settings: NB IC50 CK1γ2, tracer 23; intact HEK293 cells; N = 1
Readout Name: IC50 (nM)

1: N#Cc1ccc2nc(Nc3ccc(N4CCOCC4)c(Br)c3)[nH]c2c1 [Compound 15]
2: N#Cc1ccc2nc(Nc3ccc(N4CCOCC4)cc3)[nH]c2c1 [Compound 4]
3: CN1CCN(c2ccc(Nc3nc4ccc(C#N)cc4[nH]3)cc2Cl)CC1 [Compound 21]
Request: Rank the 3 compounds shown above by IC50, smallest number first. Put the labels in the requested order and list them out.
Result: 1, 3, 2
(1: 110 nM, 3: 220 nM, 2: 920 nM)
